Molecular target: Env of HIV-1 strain Du172.17 (HIV-1)
Experiment: cell-based or functional assay
readoutLabel: neutralization IC50

Below: 5 binders and their reported neutralization IC50.
binder | neutralization IC50
γ3κ5 (antibody, V domains shown) VH: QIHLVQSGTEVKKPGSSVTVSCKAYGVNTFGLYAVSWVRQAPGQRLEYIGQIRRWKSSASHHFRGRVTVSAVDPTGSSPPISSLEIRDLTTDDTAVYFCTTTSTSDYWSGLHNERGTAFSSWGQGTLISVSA VL: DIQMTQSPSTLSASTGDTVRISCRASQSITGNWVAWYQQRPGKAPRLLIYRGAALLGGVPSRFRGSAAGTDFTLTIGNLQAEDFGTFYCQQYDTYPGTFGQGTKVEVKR | 3.73 µg/mL
γ22κ5 (antibody, V domains shown) VH: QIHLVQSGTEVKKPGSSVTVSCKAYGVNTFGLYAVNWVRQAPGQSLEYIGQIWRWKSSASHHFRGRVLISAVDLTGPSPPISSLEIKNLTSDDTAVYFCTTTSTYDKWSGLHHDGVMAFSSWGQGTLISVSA VL: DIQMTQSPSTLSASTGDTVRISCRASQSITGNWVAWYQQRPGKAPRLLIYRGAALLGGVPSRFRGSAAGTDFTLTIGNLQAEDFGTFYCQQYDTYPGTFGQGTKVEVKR | > 15 µg/mL
γ59κ5 (antibody, V domains shown) VH: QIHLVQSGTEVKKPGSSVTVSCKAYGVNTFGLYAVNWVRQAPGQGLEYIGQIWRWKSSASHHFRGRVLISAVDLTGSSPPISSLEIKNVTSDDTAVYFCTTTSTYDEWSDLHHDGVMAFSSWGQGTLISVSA VL: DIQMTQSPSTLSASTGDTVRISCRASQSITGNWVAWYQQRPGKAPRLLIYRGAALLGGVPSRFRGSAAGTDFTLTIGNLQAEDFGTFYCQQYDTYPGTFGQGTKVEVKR | > 15 µg/mL
γ20κ18 (antibody, V domains shown) VH: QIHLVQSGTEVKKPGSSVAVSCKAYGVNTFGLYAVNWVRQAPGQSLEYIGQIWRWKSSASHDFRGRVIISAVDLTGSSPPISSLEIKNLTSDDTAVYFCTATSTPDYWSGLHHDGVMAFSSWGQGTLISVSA VL: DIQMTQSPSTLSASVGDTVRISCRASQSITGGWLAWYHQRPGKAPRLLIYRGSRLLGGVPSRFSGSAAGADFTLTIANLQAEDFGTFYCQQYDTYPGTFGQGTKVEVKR | > 15 µg/mL
γ23κ18 (antibody, V domains shown) VH: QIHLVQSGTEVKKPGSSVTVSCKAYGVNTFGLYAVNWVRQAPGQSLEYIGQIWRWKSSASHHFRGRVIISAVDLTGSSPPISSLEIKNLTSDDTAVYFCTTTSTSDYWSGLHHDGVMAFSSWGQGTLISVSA VL: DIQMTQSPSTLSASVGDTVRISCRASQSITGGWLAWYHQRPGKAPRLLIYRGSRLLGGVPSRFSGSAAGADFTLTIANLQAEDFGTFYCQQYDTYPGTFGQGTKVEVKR | 2.95 µg/mL

Field request: neutralization IC50 | item: γ59κ3 (antibody, V domains shown) VH: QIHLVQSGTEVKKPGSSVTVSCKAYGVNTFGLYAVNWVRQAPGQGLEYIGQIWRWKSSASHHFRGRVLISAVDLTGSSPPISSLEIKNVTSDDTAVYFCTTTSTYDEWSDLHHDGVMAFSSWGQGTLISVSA VL: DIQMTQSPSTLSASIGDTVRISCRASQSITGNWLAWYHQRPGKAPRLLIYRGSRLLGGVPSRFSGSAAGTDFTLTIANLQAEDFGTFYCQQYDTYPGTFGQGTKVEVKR
> 15 µg/mL

Field request: neutralization IC50 | item: γ3κ18 (antibody, V domains shown) VH: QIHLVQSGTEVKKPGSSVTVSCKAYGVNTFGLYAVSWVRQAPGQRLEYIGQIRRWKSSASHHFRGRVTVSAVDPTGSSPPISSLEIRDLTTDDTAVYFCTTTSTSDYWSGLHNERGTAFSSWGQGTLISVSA VL: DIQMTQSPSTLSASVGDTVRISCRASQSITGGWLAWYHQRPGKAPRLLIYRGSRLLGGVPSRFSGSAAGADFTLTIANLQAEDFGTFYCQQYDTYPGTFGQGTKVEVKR
11.5 µg/mL

Field request: neutralization IC50 | item: γ3κ11 (antibody, V domains shown) VH: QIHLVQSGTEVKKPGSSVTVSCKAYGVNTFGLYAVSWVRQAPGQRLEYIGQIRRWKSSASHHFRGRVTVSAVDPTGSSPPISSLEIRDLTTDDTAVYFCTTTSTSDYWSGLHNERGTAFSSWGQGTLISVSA VL: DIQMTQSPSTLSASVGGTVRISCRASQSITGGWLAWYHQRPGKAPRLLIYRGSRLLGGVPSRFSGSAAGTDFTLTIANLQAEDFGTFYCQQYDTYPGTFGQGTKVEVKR
> 15 µg/mL

Field request: neutralization IC50 | item: γ22κ11 (antibody, V domains shown) VH: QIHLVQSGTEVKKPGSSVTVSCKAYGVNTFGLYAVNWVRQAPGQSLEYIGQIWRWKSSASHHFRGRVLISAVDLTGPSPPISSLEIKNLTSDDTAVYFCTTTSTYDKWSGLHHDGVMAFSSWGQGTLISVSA VL: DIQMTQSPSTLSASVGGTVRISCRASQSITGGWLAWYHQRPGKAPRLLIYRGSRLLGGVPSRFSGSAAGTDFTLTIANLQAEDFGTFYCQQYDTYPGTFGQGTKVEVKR
> 15 µg/mL

Field request: neutralization IC50 | item: γ46κ18 (antibody, V domains shown) VH: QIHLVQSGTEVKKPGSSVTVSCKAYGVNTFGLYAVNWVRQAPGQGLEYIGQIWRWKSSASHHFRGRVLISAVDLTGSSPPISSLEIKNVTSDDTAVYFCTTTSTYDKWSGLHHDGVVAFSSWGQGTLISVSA VL: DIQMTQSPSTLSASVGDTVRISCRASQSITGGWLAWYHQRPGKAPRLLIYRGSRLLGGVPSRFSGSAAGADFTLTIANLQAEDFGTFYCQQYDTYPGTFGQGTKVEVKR
> 15 µg/mL
